# System: VchCAST RNA-guided transposition machinery (E. coli BL21(DE3) host, lacZ target)
# method notes: relative integration efficiency (T-LR orientation) vs wild-type transposon end (log2 (normalized fold change)); transposon end mutated: right end (5 bp flank + 75 bp right end); higher = more efficient transposition
Parameter threshold = -0.3. Response is condition met when relative integration efficiency (log2) meets or exceeds it, else condition not met.

construct_sequence=ACATTAGTGGATACAACCATAAAATGATAATTACACCCATAAATTGATAATTATCACACCCAATTTAACTATAACGCTCTGATCATAGTCAGACCAACATTGCTACGACCCGTATTCGCACCGACAC assigned_class="condition not met"
construct_sequence=ACATTAGTTGATACAACCATAAAATGATAATTACACCCATAAATGGATCATTATCACACCCAATTTAACTATAACGCTCTGATCATAGTCAGACCAACATTGCTACGACCCGTATTCGCACCGACAC assigned_class="condition not met"
construct_sequence=ACATTTGTTGATACAACCATAAAATGATAATTACAACCATAAAGTGATATTTATCACAACCATATATTGATATCTCCTCTGATCATAGTCAGACCAACATTGCTACGACCCGTATTCGCACCGACAC assigned_class="condition met"
construct_sequence=ACATTTGTTGATACAACCATAAAAGGATCATTCACCCCTAAATTGATAATTATCACACCCACATTTAACTATAACGCTCTGATCATAGTCAGACCAACATTGCTACGACCCGTATTCGCACCGACAC assigned_class="condition not met"
construct_sequence=ACATTTGTTGATACCACCATCAAATGATAATTACACCCATAAATTGATAATTATCACACCCAATTTAACTATAACGCTCTGATCATAGTCAGACCAACATTGCTACGACCCGTATTCGCACCGACAC assigned_class="condition met"
construct_sequence=ACATTTGTTGATTGTTCCATAAAATGATAATTACACCCATAAATTGATAATTATCACACCCATAAATTGATATTGCCTCTGATCATAGTCAGACCAACATTGCTACGACCCGTATTCGCACCGACAC assigned_class="condition not met"
construct_sequence=ACATTTGTTTCGCCAACCATAAAATGATAATTACACCCATAAATTGATAATTATCACACCCATAAATTGATATTGCCTCTGATCATAGTCAGACCAACATTGCTACGACCCGTATTCGCACCGACAC assigned_class="condition not met"
construct_sequence=ACATTTGTTGATACAACCATAAAATGATAATTACACCCATAAATTCATAATTATCACCCCCAATTTAACTATAACGCTCTGATCATAGTCAGACCAACATTGCTACGACCCGTATTCGCACCGACAC assigned_class="condition met"
construct_sequence=ACATTTGTTCATACAACCATAAAATGATAATTACACCCATAAATTCATCATTATCACACCCAATTTAACTATAACGCTCTGATCATAGTCAGACCAACATTGCTACGACCCGTATTCGCACCGACAC assigned_class="condition not met"
construct_sequence=ACATTTGTTGATACAACCATAAAATGATAATTACACCCATAAATTGATAATTATCACACAACGCCCGGTCGCGGTAAGAGGATCATAGTCAGACCAACATTGCTACGACCCGTATTCGCACCGACAC assigned_class="condition met"
